Item-by-item account of EC30
- Tested on: mono-methyl arginine in RKO cells
- MEASUREMENT PROTOCOL: RKO Methylation Assay, In Cell Western (ICW) for mono-methyl arginine and DNA content
- Assay type: cell-based
- CONDITION SUMMARY: Homo sapiens, RKO, 72 h, RKO cells, 72 hours, mono-methyl arginine, percent activation; single experiment or average of multiple experiments; read-out: EC30 (In Cell Western data, Numerical)
PROPERTY LABEL: EC30 (µM)

[[record]]
smiles_input = "CC(C)N(CCN)Cc1c[nH]nc1-c1ccc(F)cc1"
measurement_units = "µM"
censoring_sign = ">"
meas_value = 20

[[record]]
smiles_input = "CNCCN(C)Cc1c[nH]nc1-c1ccc(OC2CCOCC2)c(Cl)c1"
measurement_units = "µM"
censoring_sign = "="
meas_value = 0.098

[[record]]
smiles_input = "CNCCN(C)Cc1c[nH]nc1-c1ccc(OCC2CCC2)cc1"
measurement_units = "µM"
censoring_sign = "="
meas_value = 0.109

[[record]]
smiles_input = "CNCCN(C)Cc1cn(C2CCCC2)nc1-c1ccc(OC(C)C)cc1"
measurement_units = "µM"
censoring_sign = "="
meas_value = 2.25

[[record]]
smiles_input = "CC(C)Oc1ccc(-c2n[nH]cc2CN(C)CCN)cc1Cl"
measurement_units = "µM"
censoring_sign = "="
meas_value = 0.066

[[record]]
smiles_input = "CNCCN(C)Cc1cnn(C)c1-c1ccc(OC(C)C)c(Cl)c1"
measurement_units = "µM"
censoring_sign = "="
meas_value = 0.211

[[record]]
smiles_input = "C=CCn1cc(CN(C)CCNC)c(-c2ccc(OC(C)C)cc2)n1"
measurement_units = "µM"
censoring_sign = "="
meas_value = 5.74

[[record]]
smiles_input = "Cc1ccc(-c2n[nH]cc2CN(C)CCN)c(C)c1"
measurement_units = "µM"
censoring_sign = "="
meas_value = 14.5

[[record]]
smiles_input = "CNCCN(C)Cc1c[nH]nc1-c1ccc(OC(COC)COC)cc1"
measurement_units = "µM"
censoring_sign = "="
meas_value = 0.063

[[record]]
smiles_input = "COc1ccc(-c2n[nH]cc2CN(C)CCN)cc1"
measurement_units = "µM"
censoring_sign = "="
meas_value = 1.39


Reference source: patent US9776972B2
